Just for reference, patent US9623028B2 is where these values come from.

system: breast cancer cell lines; assay: cells; details: 96 h, read-out: Growth Inhibition IC50
measured-endpoint: pIC50
Answers are plain numbers, as −log10 of the molar value.

Which pIC50 is listed for CNC(=O)c1ccc(Nc2nc(OC(C)C)c3c(-c4ccc5nc(C)oc5c4)c[nH]c3n2)c(OC)c1 ?
6.38

---

tested on: breast cancer cell lines; test: cells; details: Homo sapiens, JIMT-1, 96 h, read-out: Growth Inhibition IC50
measured-endpoint: pIC50
One number for each entry, as −log10 of the molar value.

Which pIC50 is listed for CNC(=O)c1ccc(Nc2nc(OC(C)C)c3c(-c4ccc5nc(C)oc5c4)c[nH]c3n2)c(OC)c1 [Compound 125] ?
6.78
